Test readout: melting point

Given O=c1[nH]cnc2cc(OCc3ccccc3)ccc12 , state its recorded melting point.
267 to 269 °C

Given O=C(C=C1NC(c2ccc(F)cc2)=NC1(C(F)(F)F)C(F)(F)F)c1ccc(F)cc1 , state its recorded melting point.
121 to 123 °C

Given CCOc1nn(Cc2ccc(OCc3nc(-c4ccccc4)ccc3Cl)cc2)cc1CCC(=O)O , state its recorded melting point.
120 to 121 °C

* * *

Test readout: melting point

Would you please look over these solved cases?
[[record]]
compound = "CCCN1CCN(Cc2ccc3c(c2O)OCO3)CC1"
reported = "115 to 117 °C"

[[record]]
compound = "CC(C)c1cc2ncccc2cc1Oc1cnc(NC(CO)CO)nc1N"
reported = "172 to 174 °C"

[[record]]
compound = "O=C(O)Cc1ccccc1CBr"
reported = "110 °C"

[[record]]
compound = "O=C1Cc2cccc(-c3ccccc3)c2C1"
reported = "133 to 136 °C"

[[record]]
compound = "Oc1ccc(C2OCC3(CO2)COC(c2ccc(O)cc2)OC3)cc1 (centres undefined)"
reported = "251 to 253 °C"

[[record]]
compound = "COc1ccccc1N1CCN(CCn2c(=O)[nH]c3sc(Cl)cc3c2=O)CC1"
reported = "228 to 230 °C"


Given O=Cc1cc2c(s1)CCCc1cc(=O)n(-c3ccc(Cl)cc3)nc1-2 , state its recorded melting point.
170 to 172 °C

Given CC(=O)N(CC=C=CC=c1c(C)c2c(n(C)c1=O)=NN(c1ccccc1)C2=O)c1ccccc1 , state its recorded melting point.
> 300 °C

Given Cc1ccc(S(=O)(=O)N(F)CC(C)(C)C)cc1 , state its recorded melting point.
58 to 62.5 °C

Given CCOC(=O)COc1cccc(-c2nc3ncccc3[nH]2)c1 , state its recorded melting point.
158 °C

Given CCN(CC)C(=O)C(=O)Nc1cc(C)c(S(=O)(=O)C[N+](=O)[O-])c(C)c1 , state its recorded melting point.
128 to 129 °C

Given Nc1cc(C(F)(F)F)ccc1S(=O)(=O)c1ccccc1 , state its recorded melting point.
142 to 143 °C

Given Cc1cccc(-c2n[nH]cc2-c2ccc(F)c(-c3ccc(N4CCN(C)CC4)nc3)c2)n1 , state its recorded melting point.
86 °C

Given CCN(CC)C(=O)COc1ccccc1C(O)(CC)c1cccc(Cl)c1 (centres undefined) , state its recorded melting point.
93 to 94 °C

Given CC(C)(C)OC(=O)N1CCC(c2ccc(COc3ccc([N+](=O)[O-])cc3)nc2)CC1 , state its recorded melting point.
149 to 150 °C

Given OC1(c2cccs2)C(c2ccccc2Cl)SC2=NCCCCN21 (centres undefined) , state its recorded melting point.
120 to 122 °C

Given COc1ccc(-c2nn(Cc3ccc(F)cc3)c(=O)cc2-c2ccncc2)cc1 , state its recorded melting point.
154 to 155 °C

Given O=C(O)CCSSc1ccccc1 , state its recorded melting point.
58 °C

Given CCCc1c(OCCCSc2ccc(C(=O)CCC(=O)O)c(O)c2)ccc(C(C)=O)c1O , state its recorded melting point.
140 °C
